These data points were gathered from patent US20160348148A1.

biological target: hCBS (Homo sapiens, UniProt P35520); construct: made in house; assay: High-throughput screening of hCBS enzymatic reaction inhibitors (H2S detection with DTNB in microwell plate); assay type: biochemical; conditions: 100 nM hCBS, 4 mM L-Cys, 4 mM D,L-HCys, pH 8.6, 60 min at 37° C.; read-out: IC50 to hCBS
Sequence (P35520 whole entry): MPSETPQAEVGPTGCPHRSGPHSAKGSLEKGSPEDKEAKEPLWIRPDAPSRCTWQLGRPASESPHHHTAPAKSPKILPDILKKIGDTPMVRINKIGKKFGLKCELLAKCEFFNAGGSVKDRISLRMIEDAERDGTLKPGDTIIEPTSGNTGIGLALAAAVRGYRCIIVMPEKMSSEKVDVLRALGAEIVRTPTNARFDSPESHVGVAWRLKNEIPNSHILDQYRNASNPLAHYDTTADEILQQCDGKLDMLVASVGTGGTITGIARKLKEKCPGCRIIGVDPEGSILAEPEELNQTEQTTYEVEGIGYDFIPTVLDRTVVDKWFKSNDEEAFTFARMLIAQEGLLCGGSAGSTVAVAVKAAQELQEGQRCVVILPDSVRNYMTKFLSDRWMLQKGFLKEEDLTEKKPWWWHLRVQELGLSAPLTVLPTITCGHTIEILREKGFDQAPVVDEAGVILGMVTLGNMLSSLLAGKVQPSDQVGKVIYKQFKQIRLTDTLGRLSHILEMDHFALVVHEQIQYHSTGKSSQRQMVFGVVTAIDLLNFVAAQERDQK
MEASURED_METRIC: IC50 (µM)

Here's what some known entries look like.
1) COc1ccc2c(NCCCCCCNc3c4ccccc4nc4cc(OC)ccc34)c3ccccc3nc2c1    30
2) CCN(CC)c1ccc(C(=C2C=CC(=[N+](CC)CC)C=C2)c2ccc(N(CC)CC)cc2)cc1    15
3) Cn1ncnc2c(=O)n(C)c(=O)nc1-2    12

(P) CCCCCCCCCCCCCCCC[N+](C)(C)CCN(Cc1ccc(OC)cc1)c1ncccn1
(Q) CC1CCN(C2=C(Cl)C(=O)c3ccccc3C2=O)CC1
(R) N=C(N)NCCCS(=O)(=O)Nc1ccc(Nc2c3ccccc3nc3cc([N+](=O)[O-])ccc23)cc1
Request: Reorder: IC50, max to min. Record the ranking as a list of labels in the requested order.
Result: R, Q, P
(R: 40 µM, Q: 20 µM, P: 8 µM)

###

target: hDDC (Homo sapiens); construct: made in house; test: IC50 to hDDC (specificity test, coupled enzyme assay); assay type: biochemical; conditions: read-out: IC50 to hDDC
Sequence (P20711 whole entry): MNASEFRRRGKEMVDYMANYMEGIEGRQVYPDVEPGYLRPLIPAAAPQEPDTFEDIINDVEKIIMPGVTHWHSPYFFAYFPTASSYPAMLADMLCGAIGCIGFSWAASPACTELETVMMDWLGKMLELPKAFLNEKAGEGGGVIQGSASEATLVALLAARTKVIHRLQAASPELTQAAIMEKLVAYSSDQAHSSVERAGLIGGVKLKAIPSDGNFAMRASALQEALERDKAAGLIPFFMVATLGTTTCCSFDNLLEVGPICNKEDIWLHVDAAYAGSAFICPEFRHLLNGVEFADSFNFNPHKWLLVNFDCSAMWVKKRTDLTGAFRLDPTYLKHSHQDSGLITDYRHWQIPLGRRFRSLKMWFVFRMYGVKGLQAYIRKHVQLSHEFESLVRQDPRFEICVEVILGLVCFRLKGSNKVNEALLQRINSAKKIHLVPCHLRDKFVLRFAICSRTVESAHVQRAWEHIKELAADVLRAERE
MEASURED_METRIC: IC50 (µM)

1. CCCCCCCCCCCCCCCC[N+](C)(C)CCN(Cc1ccc(OC)cc1)c1ncccn1    16

(I) CCN(CC)c1ccc(C(=C2C=CC(=[N+](CC)CC)C=C2)c2ccc(N(CC)CC)cc2)cc1
(II) CC1CCN(C2=C(Cl)C(=O)c3ccccc3C2=O)CC1
Request: Which numeric IC50 is bigger, that of I or that of II ? To answer, give the label that identifies your chosen option.
Result: II
(II: 300 µM, I: 25 µM)

(A) COc1ccc2c(NCCCCCCNc3c4ccccc4nc4cc(OC)ccc34)c3ccccc3nc2c1
(B) N=C(N)NCCCS(=O)(=O)Nc1ccc(Nc2c3ccccc3nc3cc([N+](=O)[O-])ccc23)cc1
Request: // which entry reports the smaller IC50, A or B ? To answer, give the label that identifies your chosen option.
Result: B
(B: 60 µM, A: 110 µM)
